Target: T1, ScPif1 R324Y (Saccharomyces cerevisiae, UniProt P07271 236-753, R324Y)
T1 sequence: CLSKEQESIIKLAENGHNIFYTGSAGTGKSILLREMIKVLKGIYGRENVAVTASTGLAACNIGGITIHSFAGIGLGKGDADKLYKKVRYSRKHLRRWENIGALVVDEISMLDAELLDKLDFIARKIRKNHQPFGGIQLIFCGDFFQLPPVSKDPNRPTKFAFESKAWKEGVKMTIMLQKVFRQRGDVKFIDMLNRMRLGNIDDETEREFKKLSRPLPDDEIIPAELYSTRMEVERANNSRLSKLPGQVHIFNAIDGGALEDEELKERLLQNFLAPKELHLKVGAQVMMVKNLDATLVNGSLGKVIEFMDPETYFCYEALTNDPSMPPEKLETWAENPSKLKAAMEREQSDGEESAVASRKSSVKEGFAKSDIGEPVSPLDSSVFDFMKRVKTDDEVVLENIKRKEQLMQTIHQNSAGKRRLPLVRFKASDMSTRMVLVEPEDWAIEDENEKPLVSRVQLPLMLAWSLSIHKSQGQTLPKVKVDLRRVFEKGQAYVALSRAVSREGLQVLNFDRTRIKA
Test: fluorescence anisotropy; no nucleotide; Fluorescence anisotropy: 20 mM HEPES-NaOH pH 7.5, 100 mM NaCl, 10% glycerol, 20 C, 10 nM FAM-DNA, 30 min, quadratic fit
Conditions: protein: recombinant; tags: N-terminal SUMO tag, cleaved; label: 3' 6-FAM; parallel intramolecular G4
measurementType: pKd
Quick note: pKd means taking -log10 of the concentration in moles per liter.

Q. Find the recorded pKd belonging to TGGTGGTGGTTGTTGTGGTGGTGGTGGT (structured_DNA) [AT11-FAM] and report it.
A. 7.96

src = paper PMC11275212
